# tested_target: rat CB2 receptors (Rattus norvegicus, UniProt Q9QZN9)
# Construct: expressed in transfected cells; host or cells: HEK293
# Sequence (Q9QZN9 whole entry): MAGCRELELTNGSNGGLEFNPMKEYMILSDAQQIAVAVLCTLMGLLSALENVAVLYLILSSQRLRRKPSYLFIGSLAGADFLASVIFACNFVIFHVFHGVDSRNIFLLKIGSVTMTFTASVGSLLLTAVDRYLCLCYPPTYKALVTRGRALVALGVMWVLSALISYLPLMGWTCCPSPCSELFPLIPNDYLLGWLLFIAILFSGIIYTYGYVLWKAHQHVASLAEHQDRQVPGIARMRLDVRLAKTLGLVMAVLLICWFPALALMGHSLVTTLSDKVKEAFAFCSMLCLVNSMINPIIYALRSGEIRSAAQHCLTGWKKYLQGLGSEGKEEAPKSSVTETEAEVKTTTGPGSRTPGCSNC
# protocol_details: Rat CB2 radioligand binding assay ([3H]CP-55,940 competition)
Catalogue of pKi readings, one per entry.
Worth noting: pKi values are minus log10 of concentrations stated in mol/L.

# get_value(readout= pKi, system= rat CB2 receptors (Rattus norvegicus, UniProt Q9QZN9)) for `CNC(=O)[C@@H](NC(=O)/N=c1\sc(C(C)(C)C)nn1C[C@H]1CCCO1)C(C)(C)C`
8.00

Please answer likewise for `Cn1c(C(C)(C)C)c/c(=N\C(=O)c2cc(C(F)(F)F)ccc2OCCF)n1C[C@H]1CCCO1`
8.00

Please answer likewise for `CCOc1ccc(C(F)(F)F)cc1C(=O)/N=c1\cc(C(C)(C)C)n(C)n1C[C@H]1CCCO1`
7.62

Please answer likewise for `COc1ccc(Cl)cc1C(=O)/N=c1\sc(C(C)(C)C)nn1C[C@H]1CCCO1`
8.92

Please answer likewise for CC(F)COc1ccc(C(F)(F)F)cc1C(=O)/N=c1\cc(C(C)(C)C)n(C)n1C[C@H]1CCCO1 (stereo partly drawn)
7.66

New cases:
# get_value(readout= pKi, system= rat CB2 receptors (Rattus norvegicus, UniProt Q9QZN9)) for COc1ccc(Cl)cc1C(=O)/N=c1\sc(C2(C)CC(F)(F)C2(F)F)nn1C[C@H]1CCCO1 (stereo partly drawn)
8.80

###

# tested_target: rat CB2 receptors (Rattus norvegicus)
# Construct: expressed in transfected cells; host or cells: HEK293
# protocol_details: Rat CB2 radioligand binding assay ([3H]CP-55,940 competition)
Please assign no (0) whenever Ki is at or above 10 nM, and yes (1) whenever it is below.

is_below(Ki, 10 nM) for CCOc1ccccc1C(=O)/N=c1\sc(C2CC2)nn1CC1CCCO1 (stereo not shown) [Example 3] ?
no (0)

###

# tested_target: rat CB2 receptors (Rattus norvegicus)
# Construct: expressed in transfected cells; host or cells: HEK293
# protocol_details: Rat CB2 radioligand binding assay ([3H]CP-55,940 competition)
Catalogue of Ki readings, one per entry.

Here's what some known entries look like.
For `Cn1c(C(C)(C)C)c/c(=N\C(=O)c2cc(F)cc(F)c2F)n1C[C@H]1CCCO1` , what is its reported Ki?
67 nM

Please answer likewise for `Cn1c(C(C)(C)C)c/c(=N\C(=O)c2cc(Cl)ccc2F)n1C[C@H]1CCCO1`
11 nM

Please answer likewise for `Cn1c(C(C)(C)C)c/c(=N\C(=O)c2cc(C(F)(F)F)ccc2O)n1C[C@H]1CCCO1`
29 nM

Please answer likewise for `Cn1c(C(C)(C)C)c/c(=N\C(=O)c2cc(C(F)(F)F)ccc2OC(C)(C)C)n1C[C@H]1CCCO1`
40 nM

New cases:
For `COc1ccc(Br)cc1C(=O)/N=c1\cc(C(C)(C)C)n(C)n1C[C@H]1CCCO1` , what is its reported Ki?
20 nM

Please answer likewise for `Cn1c(C(C)(C)C)c/c(=N\C(=O)c2cc(C(F)(F)F)ccc2N)n1C[C@H]1CCCO1`
2.4 nM

Please answer likewise for `Cn1c(C2(C)CC2)c/c(=N\C(=O)c2cc(C(F)(F)F)ccc2OCC2(O)CCC2)n1C[C@H]1CCCO1`
11 nM

Please answer likewise for `Cn1c(C(C)(C)C)c/c(=N\C(=O)c2cc(C(F)(F)F)ccc2CC(=O)OC(C)(C)C)n1C[C@H]1CCCO1`
12 nM
